# Species on record: Homo sapiens
# test-name: Inhibitory concentration against IL1-beta production in human monocytes
# Format: functional
measurement-name: IC50 (nM)

smiles_code=O=C[C@H](CC(=O)O)NC(=O)[C@@H]1CCCN2C(=O)CC[C@H](NC(=O)c3ccccc3)C(=O)N12 measurement_name=IC50 quantity_unit=nM recorded_value=1000

---

# experimental-target: Caspase-1 (Homo sapiens) (UniProt P29466)
# Sequence (P29466 120-297 limits assumed): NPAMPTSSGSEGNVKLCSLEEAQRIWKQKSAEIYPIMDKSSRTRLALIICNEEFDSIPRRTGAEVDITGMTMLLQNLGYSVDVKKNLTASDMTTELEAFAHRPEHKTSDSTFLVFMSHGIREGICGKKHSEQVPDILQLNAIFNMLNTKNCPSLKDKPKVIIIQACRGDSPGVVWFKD
# Sequence (P29466 317-404 limits assumed): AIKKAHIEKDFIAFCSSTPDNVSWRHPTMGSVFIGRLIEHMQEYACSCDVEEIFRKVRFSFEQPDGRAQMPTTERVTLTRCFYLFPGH
# test-name: Second order rate constants were tested for inhibition of IL-1 beta converting enzyme (ICE)
The molecules listed here are annotated with their K obs / 1.
measurement-name: K obs / 1 (M⁻¹ s⁻¹)

smiles_code=O=C(O)C[C@H](NC(=O)Cn1c(-c2ccc(F)cc2)ncc(NC(=O)OCc2ccccc2)c1=O)C(=O)COC(=O)c1c(Cl)cccc1Cl recorded_value=268000
smiles_code=O=C(O)C[C@H](NC(=O)CN1C(=O)[C@@H](NC(=O)OCc2ccccc2)COc2ccccc21)C(=O)COc1cc(C(F)(F)F)nn1-c1ccc(Cl)cc1 recorded_value=114000
smiles_code=CSc1ccc(C(=O)N[C@H](C(=O)N[C@@H](C)C(=O)N[C@@H](CC(=O)O)C(=O)COc2cc(C(F)(F)F)nn2-c2ccccc2)C(C)C)cc1 recorded_value=800000
smiles_code=O=C(O)C[C@H](NC(=O)[C@@H]1CCCN2C(=O)CC[C@H](NC(=O)c3ccc(CN4CCOCC4)cc3)C(=O)N12)C(=O)COC(=O)c1c(Cl)cccc1Cl recorded_value=425000
smiles_code=O=C(O)CSc1ccc(C(=O)N[C@H]2CCC(=O)N3CCC[C@@H](C(=O)N[C@@H](CC(=O)O)C(=O)COc4cc(C(F)(F)F)nn4-c4ccc(Cl)cc4)N3C2=O)cc1 recorded_value=1.22e+06
smiles_code=O=C(O)CCCc1ccc(C(=O)N[C@H]2CCC(=O)N3CCC[C@@H](C(=O)N[C@@H](CC(=O)O)C(=O)COc4cc(C(F)(F)F)nn4-c4ccc(Cl)cc4)N3C2=O)cc1 recorded_value=800000
smiles_code=CC(C)[C@H](NC(=O)OCc1ccccc1)C(=O)N[C@@H](C)C(=O)N[C@@H](CC(=O)O)C(=O)COC(=O)c1c(Cl)cccc1Cl recorded_value=432000
smiles_code=O=C(O)C[C@H](NC(=O)[C@@H]1CS[C@H]2CC[C@H](NC(=O)OCc3ccccc3)C(=O)N21)C(=O)COc1cc(C(F)(F)F)nn1-c1ccccc1 recorded_value=42000
smiles_code=O=C(O)C[C@H](NC(=O)[C@@H]1CCCN2C(=O)CC[C@H](NC(=O)OCc3ccccc3)C(=O)N12)C(=O)COC(=O)c1c(Cl)cccc1Cl recorded_value=572000
smiles_code=O=C(O)C[C@H](NC(=O)Cn1c(-c2ccc(F)cc2)ncc(NC(=O)OCc2ccccc2)c1=O)C(=O)COc1cc(C(F)(F)F)nn1-c1ccc(Cl)cc1 recorded_value=310000
smiles_code=O=C(O)C[C@H](NC(=O)CN1C(=O)[C@@H](NC(=O)OCc2ccccc2)COc2ccccc21)C(=O)COC(=O)c1c(Cl)cccc1Cl recorded_value=44000
smiles_code=CN(C)Cc1ccc(C(=O)N[C@H]2CCC(=O)N3CCC[C@@H](C(=O)N[C@@H](CC(=O)O)C(=O)COc4cc(C(F)(F)F)nn4-c4ccc(Cl)cc4)N3C2=O)cc1 recorded_value=162000
smiles_code=C[C@@H](C(=O)N[C@@H](CC(=O)O)C(=O)COc1cc(C(F)(F)F)nn1-c1ccccc1)N1CC[C@H](NC(=O)OCc2ccccc2)C1=O recorded_value=31800
smiles_code=CC(C)[C@H](NC(=O)c1ccc(CN2CCN(C)CC2)cc1)C(=O)N[C@@H](C)C(=O)N[C@@H](CC(=O)O)C(=O)COc1cc(C(F)(F)F)nn1-c1ccc(Cl)cc1 recorded_value=200000
smiles_code=O=C(O)C[C@H](NC(=O)[C@@H]1CCCN2C(=O)CC[C@H](NC(=O)OCc3ccccc3)C(=O)N12)C(=O)COc1cc(C(F)(F)F)nn1-c1ccccc1 recorded_value=413000
